system: MS2 coat protein; assay: apparent KD of MS2 coat protein; designed switch direction (-1 OFF switch, 1 ON switch): -1; higher = weaker reporter binding; conditions: input ligand: microRNA oligo, concentration not stated
Parameter threshold = 50 nM. Response is yes (1) when apparent KD of MS2 coat protein meets or exceeds it, else no (0).

-- ask State whether the measured apparent KD of MS2 coat protein reaches 50 nM, counting equality as reaching it, for GUCAGCUCGUCAGGAUAUACAUGAUAGAUCGAUUAAUUAAUUAAUUUAACAUGAGGAUCACCCAUGUAGAAGGGACGAGCUGAU [ENG2/1-B2] (Eterna round: R96, puzzle: Exclusion NG 2)
-- reply yes (1)

###

test system: K4 kissing-loop RNA reporter; experiment: apparent KD of K4 kissing-loop reporter; higher = weaker reporter binding; conditions: Eterna round: R107; input ligand: FMN 200 uM
PARAMETER: apparent KD of K4 kissing-loop reporter (nM)
Number in nM, nothing else.

Would you please look over these solved cases?
>  <ITEM SEQUENCE>
GUAGCCCUAUGUGAUACCAGACGGUAUAAAAUCCUGGCGGCCAGUGAUGUUGGCCAUCGCGUCCCUUGGCAGCACCAAGGCUGUA [theeternabot_sameState_KL_Theo_B_18]

>  <TARGET OR SYSTEM>
K4 kissing-loop RNA reporter

>  <UNIT ABBREV>
nM

>  <apparent KD of K4 kissing-loop reporter>
122

$$$$
>  <ITEM SEQUENCE>
UUUUUAUAAGAGGAUACCAGUACAAAUAAAGUACAUUAAUAGUAGAGUGAUGUUCUAAAGUACCCUUGGCAGCUUAGAUUAAGUU [ExTheophylB.D]

>  <TARGET OR SYSTEM>
K4 kissing-loop RNA reporter

>  <UNIT ABBREV>
nM

>  <apparent KD of K4 kissing-loop reporter>
158

$$$$
>  <ITEM SEQUENCE>
CUUGUACAAGUGAUGUUUGUUAUAUCCGAAGGAGCGUCGUACUAGACAGGUAGGUCGCGGAUGAAGAUAGUUUUUUUAAUAUCAU [JR_Nu_SSArginiA_Sub028]

>  <TARGET OR SYSTEM>
K4 kissing-loop RNA reporter

>  <UNIT ABBREV>
nM

>  <apparent KD of K4 kissing-loop reporter>
687

$$$$
>  <ITEM SEQUENCE>
GGUGACAACCAGAGGUGAUGUAUAGAAUAGCGAGGACCGGUACGGCCGCCACUCGUGAAGAGAAAGGAGUGAUGUUCCGUAAUGG [Kazoo C5]

>  <TARGET OR SYSTEM>
K4 kissing-loop RNA reporter

>  <UNIT ABBREV>
nM

>  <apparent KD of K4 kissing-loop reporter>
330

$$$$
>  <ITEM SEQUENCE>
AGACUACCACACUGUCAAUAGACAGUGUACUAGGAUAUGCUGAUAAGCAGAAGGAGUGAUGUUCCCAGGUAGUCAAUAAAAUAAU [FmnAX 13 U28+C66]

>  <TARGET OR SYSTEM>
K4 kissing-loop RNA reporter

>  <UNIT ABBREV>
nM

>  <apparent KD of K4 kissing-loop reporter>
274

$$$$
>  <ITEM SEQUENCE>
CCUAUCUCAUACGAUACCAGUGAUUAACCAGUGAUGUUGGAAUAACCAAGGAAUAUUUAUCACCCUUGGCAGCGUAUGGGAUAGG [Ex Theophylline B K4 28]

>  <TARGET OR SYSTEM>
K4 kissing-loop RNA reporter

>  <UNIT ABBREV>
nM

>  <apparent KD of K4 kissing-loop reporter>
99.8

$$$$

-- ask Given the sequence CAACCGUAACACGAUACCAGCCUAGAAGCCAGUGAUGUUGGCCUUUUUUCGGAAAUGAAAGGCCCUUGGCAGCGUGGAUGAACUG [Dibibiquus] , write its reported apparent KD of K4 kissing-loop reporter.
-- reply 468

-- ask Given the sequence GCAGUGAUGUUGCACGAGUAGGGUAGAGUACGAGGACCGGUACGGCCGCCACUCGUACGGAACUCGCUAAUUUAUGGAAUGGUGA [I] , write its reported apparent KD of K4 kissing-loop reporter.
-- reply 465

###

tested on: MS2 coat protein; test: apparent KD of MS2 coat protein; designed switch direction (-1 OFF switch, 1 ON switch): 1; higher = weaker reporter binding; conditions: input ligand: microRNA oligo, concentration not stated
PARAMETER: apparent KD of MS2 coat protein (µM)
Number in µM, nothing else.

>  <ITEM SEQUENCE>
GGUAUGGACACAGGAUAUGCUUACGAAACGUAAGCAGAAGGGUGAACAUGAGGAUCACCCAUGUACGUGCCAGGGCGUGAGCCC [JL SSNG1 1.77] (Eterna round: R96, puzzle: Same State NG 1)

>  <apparent KD of MS2 coat protein / µM>
0.0298

$$$$
>  <ITEM SEQUENCE>
GCCGCGUUUCGCGCCUACAUGAGGAUCACCCAUGUUUGUAGGCAGGAUAUCGUCCGCUCUGCGGGCGAGAAGGGCUGUUGUGGG [salish99_SSNG3_R04_023] (Eterna round: R96, puzzle: Same State NG 3)

>  <apparent KD of MS2 coat protein / µM>
0.139

$$$$
>  <ITEM SEQUENCE>
UGUUGUUAAUUAGGAUAUGGGCACAUGAGGAUCACCCAUGUAUUUUCGAUGCUAUGUGGAGACGUCUAGAAGGGAUGGCUAACA [SameState NG2 #88] (Eterna round: R96, puzzle: Same State NG 2)

>  <apparent KD of MS2 coat protein / µM>
0.151

$$$$

-- ask Give apparent KD of MS2 coat protein for this entry on MS2 coat protein: CCGGAUAAUGGAGGAUAUGGAGCCUUAUUGGCUCCAGAAGGCUAACAUGAGGAUCACCCAUGUUUUCCGGCGGUCAAUAGACCG [Eli NG1ss - 63] (Eterna round: R96, puzzle: Same State NG 1)
-- reply 0.0114

###

system: MS2 coat protein; assay: apparent KD of MS2 coat protein; designed switch direction (-1 OFF switch, 1 ON switch): -1; higher = weaker reporter binding; settings: input ligand: none
Parameter threshold = 30 nM. Response is met when apparent KD of MS2 coat protein meets or exceeds it, else not met.

Solved cases below.
>  <ITEM SEQUENCE>
GCAGCGUAUGUAGGAUAUCGGUCAGUUUCUGAUCGAGAAGGACAUGAGGAUCACCCAUGUUAUUUCAUGCGUGAGCAUGGCUGC [JL ENG1 3.73] (Eterna round: R96, puzzle: Exclusion NG 1)

>  <TARGET OR SYSTEM>
MS2 coat protein

>  <ASSIGNED CATEGORY>
met

$$$$
>  <ITEM SEQUENCE>
AUCCUUAACAAGGAUAUCGGGCGGGAAAUUGUUUGAGAAGGUGUAACAUGAGGAUCACCCAUGUGGCGCGUGGA [-20.8, -18.9 kcal, A 28%] (Eterna round: R97, puzzle: Exclusion 6)

>  <TARGET OR SYSTEM>
MS2 coat protein

>  <ASSIGNED CATEGORY>
met

$$$$
>  <ITEM SEQUENCE>
CAGUACAGAGGAUAUACAUGAGGAUCACCCAUGUGUUUCAGCUAGGAGACUAGCGAAAGUAGAAGGCUGUACUU [salish99_ex3_r4_002] (Eterna round: R97, puzzle: Exclusion 3)

>  <TARGET OR SYSTEM>
MS2 coat protein

>  <ASSIGNED CATEGORY>
not met

$$$$
>  <ITEM SEQUENCE>
CUUUACAUGCUAAGAUCCUACAUGAGGAUCACCCAUGUGGUCCGGUGACGUGAGUCACCGGACUUAGCUCGUCUUGU [salish99_S_TOV1_R5_097] (Eterna round: R97, puzzle: Sensor, turn-off variant 1)

>  <TARGET OR SYSTEM>
MS2 coat protein

>  <ASSIGNED CATEGORY>
met

$$$$
>  <ITEM SEQUENCE>
UACAUGAGGAUCACCCAUGUUUUGUCGUGUAUGGUAUUUAUCUAGGAUAUCAUUUUAAUUAGUUAUGAGAAGGAGAAUAUUAAU [JMF's solution 87] (Eterna round: R96, puzzle: Exclusion NG 3)

>  <TARGET OR SYSTEM>
MS2 coat protein

>  <ASSIGNED CATEGORY>
met

$$$$

-- ask State whether the measured apparent KD of MS2 coat protein reaches 30 nM, counting equality as reaching it, for UUUUAGUCAGGAUAUACAUGAGGAUCACCCAUGUAAAAUUUUAAUUUAAUUUUAAGGUGUAGAAGGGACAUUUU [Ex3 #5] (Eterna round: R97, puzzle: Exclusion 3)
-- reply not met

###

tested on: K4 kissing-loop RNA reporter; assay: apparent KD of K4 kissing-loop reporter; higher = weaker reporter binding; settings: Eterna round: R107; input ligand: none;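 note: bound reporter read as fluorescence of individual clusters on recovered sequencing chips by microscopy, with normalized cluster intensities fitted with a binding model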
Parameter threshold = 300 nM. Response is Yes when apparent KD of K4 kissing-loop reporter meets or exceeds it, else No.

>  <ITEM SEQUENCE>
CGAGAGCUCUUGUUUGGAUGUGUUUUAUGGCGAGGACCGGUACGGCCGCCACUCGGGUGAUGUUAGUGAUGUUGAUGUAGUGAUG [qzxmullin]

>  <ASSIGNED CATEGORY>
No

$$$$
>  <ITEM SEQUENCE>
AAACAUCACUGGGAGUGAUGUUCUCAGUGACGAGGACCGGUACGGCCGCCACUCGCGAGAGAACUAGUCUAGUCUUGACUGCAUU [Excl Tryptophan A V14]

>  <ASSIGNED CATEGORY>
Yes

$$$$
>  <ITEM SEQUENCE>
UGGCGGCAAGGGUUAUUGGAAAGUAUUCGACGAGGACCGGUACGGCCGCCACUCGAACACCAGUGAUGUUGGUCUGGCUUAAGCC [Exclusion Tryptophan A GF 21]

>  <ASSIGNED CATEGORY>
No

$$$$

-- ask State whether the measured apparent KD of K4 kissing-loop reporter reaches 300 nM, counting equality as reaching it, for GUGAGGAGUGGUGUUGAUUAGGGAGCGGAAGGAGCGCCGAGGAAGGCAGGUAGGUCGCCGGAUUAUAGUGAUGUUAUGAAGAGGG [ExArg.K]
-- reply Yes

-- ask State whether the measured apparent KD of K4 kissing-loop reporter reaches 300 nM, counting equality as reaching it, for AAAUAAAGGGCGGCCGCCACUGAUCGCCUCCGCGUGGGUAUGUAGUGAUGUUAUAUGGCCGCCAUCAGGACCGGGCCAAAUAAAA [#10 K4 Tryptophan B Same State]
-- reply Yes

-- ask State whether the measured apparent KD of K4 kissing-loop reporter reaches 300 nM, counting equality as reaching it, for UUUCUACCGGGAAGGAGCGUGAAUGAUAAUGGAUAUAGUGAUGUUAUAUAUAAGAACGAAUCGCAGGUAGGUCGCCCGGAUGACU [SSArgB.S]
-- reply Yes
